- Tested on: MOLT-4 leukemia
- protocolNotes: NCI-60 one-dose screen, 48 h
- assayContext: 10 µM
This is part of a sample that, as a whole, favours compounds with a hit. Of some 83,000 tested, about 20% had one in any assay. The source made the active and inactive calls. How the source made its calls: active means growth percent below 10; inactive means the rest.
# valid calls are yes for active, no for inactive; nothing else

O=C(CF)N(O)c1ccc(/C=C/c2ccccc2)cc1 ... no
CCC(/C=C(C)/C=C/C(=O)c1c(O)c(-c2ccc(O)cc2)c[nH]c1=O)CO (centres undefined) ... no
CCC[CH2][Sn]([CH2]CCC)([CH2]CCC)[O]C(=O)CC ... yes

Query string: Tell me the recorded outcome of this test for CCOP(=O)(OCC)Oc1ccc(Sc2ccc(OP(=O)(OCC)OCC)cc2)cc1 .
Result string: no

Query string: Try this compound too: C[CH2][Pb]([CH2]C)([CH2]C)[O]C(=O)COC
Result string: yes

Query string: Again, but for S=P(N1CCCCCC1)(N1CC1)N1CC1
Result string: no

Query string: Next record, please: OC1CCCCC1N1CCC(c2ccccc2)CC1 (centres undefined)
Result string: no

Query string: Moving on to CC1(C)N=C(N)N=C(N)N1c1ccc(CCCCc2ccc(S(=O)(=O)F)cc2)cc1
Result string: no

Query string: And for O=C(O)C1(Br)CC12c1ccccc1-c1ccccc12 (centres undefined) ?
Result string: no

----------
- Tested on: HL-60(TB) leukemia
- protocolNotes: NCI-60 one-dose screen, 48 h (100 = growth as untreated, 0 = no growth, -100 = all killed)
- assayContext: 10 µM unless noted
This is part of a sample that, as a whole, favours compounds with a hit. Of some 83,000 tested, about 20% had one in any assay.
measurementType: growth (%)
The reply should be a number in %, with the unit left off.

Reference set (4 entries):
Cn1ccnc1C(=O)/C=C/c1ccc(CC(=O)Nc2ccc(Cl)cc2)cc1 ... 5.24
COc1ccc(-c2nn(-c3cccc(NC(=O)c4ccc5c(c4)OCCO5)c3)cc2-c2ccncc2)cc1Cl ... -2.93
COc1cc(C2CC(=O)Nc3c2c(C)nn3-c2nc3ccccc3[nH]2)c(OC)c2c1OCO2 (configuration not stated) ... 26.2
COc1cccc(/C=C/C(=O)c2c(C)nc3ccccc3c2/C=C/c2ccccc2)c1OC ... 13.6

Query string: Query the reported growth for HL-60(TB) leukemia; item: COc1cc(/C=C(/c2ccccc2)[N+](=O)[O-])c(OC)c2c1OCO2
Result string: -23

Query string: Field entry: O=C(NCc1ccc2c(c1)OCO2)NCC1CCCC(CNC(=O)NCc2ccc3c(c2)OCO3)C1 (configuration not stated)
Result string: 108

Query string: // query: CC(Sc1nc2sc3c(c2c(=O)n1-c1ccc(Cl)cc1)CCCC3)C(=O)Nc1nc(-c2ccc(Br)cc2)cs1 (configuration not stated)
Result string: 98.6

Query string: Continue with O=C(N/N=C/c1ccc(Cl)cc1)c1ccc(Cc2n[nH]c(=O)c3cccnc23)cc1
Result string: 100

Query string: # iterate: c1c(-c2cc(C3CC3)[nH]n2)n[nH]c1C1CC1
Result string: 78.4

Query string: Next compound up: O=CN1N=C(c2ccc(F)cc2)CC1c1cccc(Nc2ccnc3cc(C(F)(F)F)ccc23)c1 (configuration not stated)
Result string: 8.69

Query string: Now the same for C=C1C(=O)O[C@H]2[C@H]1CC/C(COC(=O)/C=C/c1cccnc1)=C\CC[C@@]1(C)O[C@@H]21
Result string: -28

Query string: Please give the result for O=CC(Br)C(Br)c1ccccc1 (configuration not stated) too.
Result string: 26.3

Query string: Request: CN(C)c1nc(-c2cccs2)n2nc(-c3ccco3)cc2n1
Result string: 95.3

Query string: How about this compound: c1ccc(-c2cn(-c3ccccc3)c(-c3ccccc3)n2)cc1
Result string: 40.3

Query string: Let us now turn to CCCn1c(N)c(C(N)=O)sc1=S
Result string: 94.9

Query string: Now the same for Cc1[nH]n(C(=O)c2ccncc2)c(=O)c1N=Nc1ccc(S(=O)(=O)Nc2ccncn2)cc1
Result string: 91.3

Query string: Please answer likewise for Cc1c(NCC(=O)Nc2nc3ccccc3[nH]2)c(=O)n(-c2ccccc2)n1C
Result string: 98.5

Query string: Input CCc1c(C)c2ccc(O)c(-c3cc(-c4ccccc4)c(C#N)c(=O)[nH]3)c2oc1=O
Result string: 109

Query string: Param item: CC(=O)OC[C@H]1OC(Sc2sc(C(=O)c3ccc(Br)cc3)c(N)c2-c2nc3ccccc3s2)[C@H](OC(C)=O)[C@@H](OC(C)=O)[C@@H]1OC(C)=O (some centres not stated)
Result string: 113

Query string: Next up: CSCCC1NC(=O)C(C(C)=Nc2ccccc2)=C1O (configuration not stated)
Result string: 117

Query string: How about this compound: COc1cc(Nc2ccnc(NCCNc3ccnc4cc(Cl)ccc34)n2)cc(OC)c1
Result string: 11.9

Query string: Same for COc1ccc(/C=C/C(=O)c2ccc(NC(=O)CN3CCN(c4cc5c(cc4F)c(=O)c(C(=O)O)cn5C4CC4)CC3)cc2)cc1
Result string: 123

----------
Let's look at some compounds and their measured growth.
- Test system: NCI-H226 lung
- protocolNotes: NCI-60 one-dose screen, 48 h (100 = growth as untreated, 0 = no growth, -100 = all killed)
- assayContext: 10 µM unless noted
About 83,000 compounds went through this panel and 20% of them were active in at least one assay; those are over-represented in the sample as a whole.
Respond numerically; units are % and should not be typed.

[N-]=[N+]=NC(C(=O)O)c1ccccc1 (stereo not drawn) ... 125
CC(C)CCC[C@@H](C)[C@H]1CC[C@H]2[C@@H]3CC=C4C[C@@H](OC(=O)Cc5ccc(N(CCCl)CCCl)cc5)CC[C@]4(C)[C@H]3CC[C@]12C ... 94.3

Note: attention shifts to another entry.
Query string: Given the compound C[As](=O)(O)c1ccc(C(=O)O)cc1 , what is its reported growth?
Result string: 99.7

----------
- System: SK-MEL-2 melanoma
- protocolNotes: NCI-60 one-dose screen, 48 h
- assayContext: 10 µM unless noted
This is part of a sample that, as a whole, favours compounds with a hit. Of some 83,000 tested, about 20% had one in any assay. The source made the active and inactive calls. The calls were made as follows: active = growth percent below 10; inactive = the rest.
Choose the fitting class; nothing outside active, inactive is accepted.

Query string: Fill in: this test's call for COc1cccc2c1C(=O)c1c(O)c3c(c(O)c1C2=O)CC(O)(/C(C)=N/NC(=O)CCC(=O)N/N=C(\C)C1(O)Cc2c(O)c4c(c(O)c2C(OC2CC(N)C(O)C(C)O2)C1)C(=O)c1c(OC)cccc1C4=O)CC3OC1CC(N)C(O)C(C)O1 (stereo unspecified) is ___
Result string: active

Query string: Same lookup for CCCCOC(=O)c1ccccc1C(=O)O.CCCCOC(=O)c1ccccc1C(=O)O.[Cu+2] , please.
Result string: inactive

Query string: Item: CCC[CH2][Sn]([CH2]CCC)([CH2]CCC)[O]C(=O)c1ccc(Cl)cc1Cl
Result string: active

Query string: Item: CC(C)(NC(=O)c1nn(CCCCCF)c2ccccc12)c1ccccc1
Result string: inactive

----------
- Tested on: HL-60(TB) leukemia
- protocolNotes: NCI-60 one-dose screen, 48 h
- assayContext: 10 µM unless noted
The panel holds about 83,000 compounds, 20% with a hit somewhere; the sample as a whole holds those more often. Active and inactive are the calls of the source. Rule for the calls: active = growth percent below 10; inactive = the rest.
Output constraint: value belongs to active, inactive

Some entries whose results are on file:
CC1CCN(C(=O)CSc2nc3sc4c(c3c(=O)[nH]2)CCCC4)CC1 ... inactive
COc1cc(N)c2ncccc2c1SC ... inactive

Query string: Per the records of this test, what outcome belongs to COCCn1cc(-c2csc(-c3c[nH]c4ccc(Br)cc34)n2)c2cccnc21 ?
Result string: inactive

Query string: Proceed to Cc1cc2nc3c4cc([N+](=O)[O-])ccc4n(CCN(C)C)c3nc2cc1C
Result string: active

Query string: Again, but for Nc1cc2[nH]c(=O)c3ccccc3c2cc1Br
Result string: inactive

----------
- System: UACC-257 melanoma
- protocolNotes: NCI-60 one-dose screen, 48 h (100 = growth as untreated, 0 = no growth, -100 = all killed)
- assayContext: 10 µM unless noted
The panel holds about 83,000 compounds, 20% with a hit somewhere; the sample as a whole holds those more often.
measurementType: growth (%)
Report the figure in % without appending any unit label.

Worked set:
O=C(CI)Nc1ccc(Br)cc1 ... 92.9
CC1COC(=O)C1 (configuration not stated) ... 104
CCC(C)[C@H]1O[C@]2(C=C[C@@H]1C)C[C@@H]1C[C@@H](C/C=C(\C)[C@@H](OC3C[C@H](OC)C(O[C@H]4C[C@H](OC)[C@@H](O)[C@H](C)O4)[C@H](C)O3)[C@@H](C)/C=C/C=C3\CO[C@@H]4[C@H](O)C(C)=C[C@@H](C(=O)O1)[C@]34O)O2 (some centres not stated) ... -17.1
CC(CC(C#N)(c1ccccc1)c1ccccc1)N1CCOCC1 (configuration not stated) ... 106
COc1ccc(OC)c(/C=C(/C)[N+](=O)[O-])c1 ... 0.553

Query string: Fill blank: measured growth of the compound O=[N+]([O-])c1ccc(F)c([N+](=O)[O-])c1F is ____.
Result string: 103

Query string: Okay, and COc1ccc(-c2ccc(OC)c(OC)c2OC)cc1 ?
Result string: 43.2

Query string: Next compound: CNC(=O)Oc1ccccc1
Result string: 102

Query string: Ok, now ClCCN(CCCl)c1ccc(C=NCCc2c[nH]c3ccccc23)cc1
Result string: 99.9

Query string: CN1C(=O)NC(=O)C(N=Nc2ccc(Cl)cc2)C1=O (configuration not stated) , same question.
Result string: 105

Query string: Then what about the compound S=P(Nc1ccccc1)(Nc1ccccc1)c1ccccc1 ?
Result string: 102

Query string: Thanks! And COc1cc[c]([Hg][Cl])cc1 ?
Result string: 65.5

Query string: Repeat for the following compound: CCCCn1cc(C(=O)/C(C#N)=C/c2cc3ccccc3nc2Cl)c2cc(OC)ccc21
Result string: 98.5

Query string: Queued: CCOc1ccc(C(O)CN(C)Cc2ccccc2)cc1Cl (configuration not stated)
Result string: 108

Query string: Another compound to check: O=[N+]([O-])c1cc([N+](=O)[O-])c(Cl)c(Cl)c1Cl
Result string: 20.4

Query string: Try this compound next: CNC(=O)Oc1cccc(OC)c1
Result string: 112

Query string: CNC(=O)O/N=C(/C)c1ccc(Cl)cc1 , same question.
Result string: 104

Query string: Thanks! And [Br][Pb]([c]1ccccc1)([c]1ccccc1)[c]1ccccc1 ?
Result string: -99

Query string: Next record, please: C/C(=N/OC(=O)N(C)C)c1ccc(Cl)cc1Cl
Result string: 101

Query string: Would you mind doing n1nc(-c2nonc2-c2nn[nH]n2)n[nH]1 as well?
Result string: 100

Query string: One more compound: C/C1=C/C(=O)O[C@@H]2C[C@@H](CC[C@H](C)/C=C\C=C\CC1)O[C@@](OCCc1ccccc1)([C@@H]1CSC(=O)N1)C2
Result string: -3.39

Query string: What do you get for CC(C)C1c2ccc(O)cc2Oc2nc(N)c(C#N)c(N)c21 (configuration not stated) ?
Result string: 105
